Molecular target: Toll-like receptor 9 (Homo sapiens) + Myeloid differentiation primary response protein MyD88 (Homo sapiens) (UniProt Q9NR96+Q99836)
Sequence (Q99836 whole entry, looked up): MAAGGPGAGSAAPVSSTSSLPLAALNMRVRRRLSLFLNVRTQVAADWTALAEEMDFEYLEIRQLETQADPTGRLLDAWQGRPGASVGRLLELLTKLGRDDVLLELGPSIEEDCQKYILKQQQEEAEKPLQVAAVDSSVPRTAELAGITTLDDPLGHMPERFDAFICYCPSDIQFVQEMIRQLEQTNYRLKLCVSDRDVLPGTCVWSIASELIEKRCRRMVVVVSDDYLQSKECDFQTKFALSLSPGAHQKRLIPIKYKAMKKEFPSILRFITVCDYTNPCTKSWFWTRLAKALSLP
Sequence (Q9NR96 whole entry, looked up): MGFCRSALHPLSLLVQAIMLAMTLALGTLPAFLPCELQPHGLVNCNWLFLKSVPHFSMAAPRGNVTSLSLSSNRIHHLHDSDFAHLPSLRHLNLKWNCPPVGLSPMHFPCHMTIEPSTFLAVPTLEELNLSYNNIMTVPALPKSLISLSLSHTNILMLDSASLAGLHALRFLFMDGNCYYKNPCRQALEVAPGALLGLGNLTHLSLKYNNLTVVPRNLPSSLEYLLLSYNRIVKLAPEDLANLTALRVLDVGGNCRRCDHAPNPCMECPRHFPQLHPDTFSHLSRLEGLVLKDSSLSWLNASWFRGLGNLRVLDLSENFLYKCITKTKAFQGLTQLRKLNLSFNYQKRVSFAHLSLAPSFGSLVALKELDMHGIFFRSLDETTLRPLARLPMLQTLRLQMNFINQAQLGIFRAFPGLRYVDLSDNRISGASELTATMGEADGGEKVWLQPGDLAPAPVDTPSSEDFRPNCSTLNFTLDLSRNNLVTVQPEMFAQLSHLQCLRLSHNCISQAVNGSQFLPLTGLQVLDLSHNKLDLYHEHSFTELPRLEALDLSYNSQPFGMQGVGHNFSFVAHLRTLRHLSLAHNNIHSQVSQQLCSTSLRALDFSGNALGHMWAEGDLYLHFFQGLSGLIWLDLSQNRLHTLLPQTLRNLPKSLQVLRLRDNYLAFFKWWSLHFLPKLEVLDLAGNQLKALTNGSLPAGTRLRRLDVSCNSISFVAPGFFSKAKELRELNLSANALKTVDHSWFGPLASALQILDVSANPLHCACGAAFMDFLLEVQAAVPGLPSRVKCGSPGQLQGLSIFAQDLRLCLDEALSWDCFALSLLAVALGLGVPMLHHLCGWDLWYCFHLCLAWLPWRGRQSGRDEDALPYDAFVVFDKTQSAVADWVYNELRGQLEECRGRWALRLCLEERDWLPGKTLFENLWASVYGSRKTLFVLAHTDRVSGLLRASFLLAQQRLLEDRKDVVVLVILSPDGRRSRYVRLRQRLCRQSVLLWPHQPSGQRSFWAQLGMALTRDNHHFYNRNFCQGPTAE
Assay: disruptors of TLR9 binding to MyD88 – cell-based, CHO, BLA complementation, fluorescence, primary screen (AID 504734);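 note: 0% = DMSO only wells and 100% = clavulanate BLA inhibitor control wells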
Details: CHO BLA complementation TLR9-MyD88, CCF4 FRET ratio; at 4.98 µM
Hit rate of the full screen: of about 340,000 compounds, about 730 (0.21%) were called active.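 Rule for the calls: active = inhibition above the mean over all tested compounds plus 3 SD (cut at about 21% in these data); inactive = the rest.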 This is one part of a sample in which actives are shown more often than they occur.
Allowed answers: label 1 for active, label 0 for inactive

Some entries whose results are on file:
molecule	label
O=C(CSc1ccc(Cl)cc1)NC1CC1	label 0
Cc1cc(C)cc(NC(=O)CCN2C(=O)c3ccccc3C2=O)c1	label 0
CCCc1cc(=O)oc2c(C)c(OCC(=O)Nc3ccccn3)ccc12	label 0
O=C(NCCc1cccc(F)c1)C1CC(O)CN1C(=O)Nc1ccccc1 (stereo unspecified)	label 0
CSc1ncccc1C(=O)N1CCCC(Nc2ccc(F)c(F)c2)C1 (stereo unspecified)	label 0
CCOc1cccc(=O)c2c(C)n(CC3CCCO3)c(C)c12 (stereo unspecified)	label 0
CCN(CC(=O)Nc1ccc(NC(C)=O)cc1)C(=O)C1CC(=O)N(c2ccc3c(c2)OCCO3)C1 (stereo unspecified)	label 0
O=C(CCN1C(=O)c2ccccc2C1=O)NNC(=O)c1ccc(Cl)cc1Cl	label 1
Cc1sc2ncnc(SCC(=O)NC3CCS(=O)(=O)C3)c2c1C (stereo unspecified)	label 0
CCN(Cc1ccncc1)C(=S)Nc1ccccc1C	label 0

IN: Kindly provide the recorded test outcome for the following molecule: `CN1CN(C)c2ccc([N+](=O)[O-])c3cccc1c23`
OUT: label 0

IN: Kindly provide the recorded test outcome for the following molecule: `COCCCn1c(C(=O)NC2CCCCC2)cc2c(=O)n3cccc(C)c3nc21`
OUT: label 0

IN: Kindly provide the recorded test outcome for the following molecule: `COc1cc(/C=C2\CCCc3c2nc2ccccc2c3C(=O)O)cc(Cl)c1O`
OUT: label 0

IN: Kindly provide the recorded test outcome for the following molecule: `NC(=O)c1ccc(NC(=O)COC(=O)c2c3c(nc4ccccc24)/C(=C\c2ccc4c(c2)OCO4)CCC3)cc1`
OUT: label 0

IN: Kindly provide the recorded test outcome for the following molecule: `NC(=S)NN=Cc1ccc(OC(=O)COc2cc(Cl)c(Cl)cc2Cl)cn1`
OUT: label 0

IN: Kindly provide the recorded test outcome for the following molecule: `C[C@@H]1CN([C@@H](C)CO)S(=O)(=O)c2ccc(-c3ccc(C(=O)N(C)C)cc3)cc2O[C@@H]1CN(C)Cc1ccccc1C(=O)O`
OUT: label 0

IN: Kindly provide the recorded test outcome for the following molecule: `C[C@H]1CN([C@@H](C)CO)C(=O)CCCn2cc(nn2)CO[C@@H]1CN(C)S(=O)(=O)c1cccc(C#N)c1`
OUT: label 0

IN: Kindly provide the recorded test outcome for the following molecule: `CNC(=S)N/N=C/c1ccc(OCc2ccccc2)c(Br)c1`
OUT: label 1

IN: Kindly provide the recorded test outcome for the following molecule: `O=C(O)COc1ccc(/C=N/O)cc1Br`
OUT: label 0

IN: Kindly provide the recorded test outcome for the following molecule: COc1ccccc1NC(=O)C(CC(=O)O)Cc1cc(C)cc(C)c1 (stereo unspecified)
OUT: label 0

IN: Kindly provide the recorded test outcome for the following molecule: `C[C@H]1CN([C@@H](C)CO)C(=O)CCCn2nncc2CO[C@@H]1CN(C)Cc1ccc(Oc2ccccc2)cc1`
OUT: label 0
